Sourced from the NIST ThermoML archive (doi:10.1021/je800356x)

assay: molar heat capacity at constant pressure; conditions: 305.15 K; 101.33 kPa; Liquid; Small sample (50 mg) DSC
Numbers after ± are expanded uncertainties.
The following compounds are listed with their measured molar heat capacity at constant pressure values.
MEASUREMENT LABEL: molar heat capacity at constant pressure

>>> df
   smiles_notation                result
0        OCCCCCCCO  303.09 ± 4.7 J/K/mol
1            OCCCO  179.15 ± 2.8 J/K/mol
2          OCCCCCO  237.47 ± 3.7 J/K/mol
3             OCCO  151.92 ± 2.4 J/K/mol
4           OCCCCO  207.22 ± 3.2 J/K/mol
